These entries and their values trace back to ChEMBL document CHEMBL3407479.

test: Elimination half life in ICR mouse at 20 mg/kg, po; type: ADME, organism-based; set-up: dose 20 mg/kg, route oral; details: in vivo, read-out: beta t1/2 (converted)
MEASURED PROPERTY: half-life (min)
Hi! Could you send only the number? It should be in min, unit omitted.

For the compound FC(F)(F)c1ccc(Oc2ccc(-c3noc(-c4ccc5[nH]ccc5c4)n3)cc2)cc1 , what half-life is on record?
1120

----------
Listed next: entries and their corresponding MIC.
tested on: Staphylococcus haemolyticus; experiment: Antibacterial activity against Staphylococcus haemolyticus ATCC 29970 after 16 to 20 hrs by broth microdilution method; assay type: functional
Hi! Could you send only the number? It should be in µg/mL, unit omitted.

Example entries begin here.
                                   compound  observed_result
0  Oc1ccc(-c2nc(-c3ccc(Oc4ccc(C(F)(F)F)cc4)cc3)no2)cc1                2
1  FC(F)(F)c1ccc(Oc2ccc(-c3noc(-c4ccc5[nH]ccc5c4)n3)cc2)cc1                8
2  CC(=O)NC[C@H]1CN(c2ccc(N3CCOCC3)c(F)c2)C(=O)O1 [LINEZOLID]                2

Next:
For the compound FC(F)(F)c1ccc(Oc2ccc(-c3noc(-c4c[nH]cn4)n3)cc2)cc1 , what MIC is on record?
16

----------
Listed next: entries and their corresponding MIC.
tested on: Staphylococcus aureus; test: Antibacterial activity against methicillin-sensitive Staphylococcus aureus ATCC 29213 after 16 to 20 hrs by broth microdilution method; type: functional

>>> df
                            chemical_string          target_system  measured_property  observed_result
0  FC(F)(F)c1ccc(Oc2ccc(-c3noc(-c4n[nH]cc4NC4CCCC4)n3)cc2)cc1  Staphylococcus aureus                MIC      ≥ 128 µg/mL
1  Nc1ccc(-c2nc(-c3ccc(Oc4ccccc4)cc3)no2)cc1F  Staphylococcus aureus                MIC      ≥ 128 µg/mL
2  FC(F)(F)c1ccc(Oc2ccc(-c3noc(-c4n[nH]c5ccccc45)n3)cc2)cc1  Staphylococcus aureus                MIC      ≥ 128 µg/mL
3  Oc1ccc(-c2nc(-c3ccc(Oc4ccc(C(F)(F)F)cc4)cc3)no2)cc1F  Staphylococcus aureus                MIC          2 µg/mL
4  FC(F)(F)c1ccc(Oc2ccc(-c3noc(-c4ccc(Br)cc4)n3)cc2)cc1  Staphylococcus aureus                MIC      ≥ 128 µg/mL
5  O=C(O)c1ccc(-c2nc(-c3ccc(Oc4ccc(F)cc4)cc3)no2)cc1  Staphylococcus aureus                MIC      ≥ 128 µg/mL
6  CC(C)c1cc(-c2nc(-c3ccc(Oc4ccc(F)cc4)cc3)no2)n[nH]1  Staphylococcus aureus                MIC      ≥ 128 µg/mL
7  O=C(Nc1c[nH]nc1-c1nc(-c2ccc(Oc3ccc(C(F)(F)F)cc3)cc2)no1)c1ccccn1  Staphylococcus aureus                MIC      ≥ 128 µg/mL
8  Cl.Nc1ccc(-c2nc(-c3ccc(Oc4ccc(C(F)(F)F)cc4)cc3)no2)cc1  Staphylococcus aureus                MIC          1 µg/mL
9  CC(C)CNc1c[nH]nc1-c1nc(-c2ccc(Oc3ccc(C(F)(F)F)cc3)cc2)no1  Staphylococcus aureus                MIC      ≥ 128 µg/mL

For the compound Oc1ccc(-c2nc(-c3ccc(Oc4ccc(C(F)(F)F)cc4)cc3)no2)cc1 , what MIC is on record?
1 µg/mL

Try the compound c1ccc(Oc2ccc(-c3noc(C4CCOCC4)n3)cc2)cc1
≥ 128 µg/mL

Try the compound Fc1ccc(Oc2ccc(-c3noc(-c4ccc(Br)cc4)n3)cc2)cc1
≥ 128 µg/mL

Try the compound OCC#Cc1c[nH]nc1-c1nc(-c2ccc(Oc3ccc(C(F)(F)F)cc3)cc2)no1
4 µg/mL

Try the compound Oc1cccc(-c2nc(-c3ccc(Oc4ccccc4)cc3)no2)c1
≥ 128 µg/mL

----------
test system: HepG2; assay: Cytotoxicity against human HepG2 cells assessed as cell viability after 16 hrs by XTT assay; type: cell-based; settings: HepG2, 16 h
Listed next: entries and their corresponding IC50.
Hi! Could you send only the number? It should be in µg/mL, unit omitted.

For the compound Oc1ccc(-c2nc(-c3ccc(Oc4ccc(C(F)(F)F)cc4)cc3)no2)cc1 , what IC50 is on record?
25.8

Try the compound FC(F)(F)c1ccc(Oc2ccc(-c3noc(-c4ccc5[nH]ccc5c4)n3)cc2)cc1
75.7

Try the compound Fc1ccc(Oc2ccc(-c3noc(-c4n[nH]cc4Cl)n3)cc2)cc1
18.2

Try the compound FC(F)(F)c1ccc(Oc2ccc(-c3noc(-c4c[nH]cn4)n3)cc2)cc1
31.5

----------
test: Clearance in ICR mouse at 20 mg/kg, iv; type: ADME, organism-based; design: dose 20 mg/kg, route intravenous; details: in vivo
MEASURED PROPERTY: clearance (mL/min/kg)
Hi! Could you send only the number? It should be in mL/min/kg, unit omitted.

For the compound FC(F)(F)c1ccc(Oc2ccc(-c3noc(-c4ccc5[nH]ccc5c4)n3)cc2)cc1 , what clearance is on record?
5.68

----------
test system: Staphylococcus epidermidis; test: Antibacterial activity against Staphylococcus epidermidis ATCC 35547 after 16 to 20 hrs by broth microdilution method; format: functional
MEASURED PROPERTY: log10 MIC (log10 of the value in µg/mL)
Please keep in mind that the values are log10 of MIC expressed in µg/mL.

MOLECULE	log10 MIC
FC(F)(F)c1ccc(Oc2ccc(-c3noc(-c4c[nH]cn4)n3)cc2)cc1	1.51

For the molecule FC(F)(F)c1ccc(Oc2ccc(-c3noc(-c4ccc5[nH]ccc5c4)n3)cc2)cc1 , what log10 MIC is on record?
0.60

Try the molecule CC(=O)NC[C@H]1CN(c2ccc(N3CCOCC3)c(F)c2)C(=O)O1 [LINEZOLID]
0.00

Try the molecule CN[C@H](CC(C)C)C(=O)N[C@H]1C(=O)N[C@@H](CC(N)=O)C(=O)N[C@H]2C(=O)N[C@H]3C(=O)N[C@H](C(=O)N[C@H](C(=O)O)c4cc(O)cc(O)c4-c4cc3ccc4O)[C@H](O)c3ccc(c(Cl)c3)Oc3cc2cc(c3O[C@@H]2O[C@H](CO)[C@@H](O)[C@H](O)[C@H]2O[C@H]2C[C@](C)(N)[C@H](O)[C@H](C)O2)Oc2ccc(cc2Cl)[C@H]1O [VANCOMYCIN]
1.20

Try the molecule Oc1ccc(-c2nc(-c3ccc(Oc4ccc(C(F)(F)F)cc4)cc3)no2)cc1
0.30

----------
assay: Plasma protein binding in human at 10 uM after 6 hrs by equilibrium dialysis assay; format: ADME, cell-free
MEASURED PROPERTY: PPB (%)
Hi! Could you send only the number? It should be in %, unit omitted.

>>> print(df.to_string())
                            chemical_string  result_units  observed_result
0  FC(F)(F)c1ccc(Oc2ccc(-c3noc(-c4ccc5[nH]ccc5c4)n3)cc2)cc1             %             98.2

For the compound Oc1ccc(-c2nc(-c3ccc(Oc4ccc(C(F)(F)F)cc4)cc3)no2)cc1 , what PPB is on record?
99.9

Try the compound Fc1ccc(Oc2ccc(-c3noc(-c4n[nH]cc4Cl)n3)cc2)cc1
94.5

Try the compound CC(C)Nc1c[nH]nc1-c1nc(-c2ccc(Oc3ccc(C(F)(F)F)cc3)cc2)no1
91.6

Try the compound FC(F)(F)c1ccc(Oc2ccc(-c3noc(-c4c[nH]cn4)n3)cc2)cc1
93.5

Try the compound C#Cc1c[nH]nc1-c1nc(-c2ccc(Oc3ccc(C(F)(F)F)cc3)cc2)no1
96.4

Try the compound FC(F)(F)c1ccc(Oc2ccc(-c3noc(-c4n[nH]cc4Cl)n3)cc2)cc1
97.8

----------
experiment: Volume of distribution in ICR mouse at 20 mg/kg, iv; type: ADME, organism-based; set-up: dose 20 mg/kg, route intravenous; conditions: in vivo
MEASURED PROPERTY: Vd (L/kg)
Hi! Could you send only the number? It should be in L/kg, unit omitted.

For the molecule FC(F)(F)c1ccc(Oc2ccc(-c3noc(-c4ccc5[nH]ccc5c4)n3)cc2)cc1 , what Vd is on record?
4.73

----------
experiment: AUC (0 to infinity) in ICR mouse at 20 mg/kg, iv; format: ADME, organism-based; design: time infinity, dose 20 mg/kg, route intravenous; settings: plasma
MEASURED PROPERTY: AUC(0-inf) (ng·h/mL)
Hi! Could you send only the number? It should be in ng·h/mL, unit omitted.

For the compound FC(F)(F)c1ccc(Oc2ccc(-c3noc(-c4ccc5[nH]ccc5c4)n3)cc2)cc1 , what AUC(0-inf) is on record?
58700
